# ASSAY COMMENT: Solubility in human stratum corneum
# Assay type: physicochemical
# SETTINGS: average of triplicate
Where a name gives a salt, the structure may show the parent alone.
ASSAY METRIC: Solubility in human stratum corneum (mg/mL)

Answered examples (2):
1. NCC(CC(=O)O)c1ccc(Cl)cc1 (stereo not shown) [Baclofen (Bac), Baclofen, reference compound] : 0.00311
2. NCC(CC(=O)O)c1ccc(Cl)cc1 (stereo not shown) [Bac. hydrobromide] : 0.2922

I. NCC(CC(=O)O)c1ccc(Cl)cc1 (stereo not shown) [Bac. hydrofluoride]
II. NCC(CC(=O)O)c1ccc(Cl)cc1 (stereo not shown) [Bac. hydrochloride]
Incoming: Parameter check: reported Solubility in human stratum corneum is higher for which label, I or II ? Respond with the label that goes with your answer.
Outgoing: II
(II: 0.21469 mg/mL, I: 0.02215 mg/mL)

###

# ASSAY COMMENT: Permeation rate through polyurethane
# Format: physicochemical
Where a name gives a salt, the structure may show the parent alone.
ASSAY METRIC: Permeation rate through polyurethane (ug/cm 2/hr)

1. O=C(O)CN1C(=O)[C@@H](N[C@@H](CCc2ccccc2)C(=O)O)CCc2ccccc21 [Benazeprilat (CGS14831), Benazeprilat, reference compound] : 0.311
2. NCCCC[C@H](N[C@H]1CCc2ccccc2N(CC(=O)O)C1=O)C(=O)O [CGS 16617. monomaleate] : 3.47
3. NCCCC[C@H](N[C@H]1CCc2ccccc2N(CC(=O)O)C1=O)C(=O)O [CGS 16617. dihydrobromide] : 65.31

I. NCCCC[C@H](N[C@H]1CCc2ccccc2N(CC(=O)O)C1=O)C(=O)O [CGS 16617. dihydrochloride]
II. NCCCC[C@H](N[C@H]1CCc2ccccc2N(CC(=O)O)C1=O)C(=O)O [CGS 16617, reference compound]
III. O=C(O)CN1C(=O)[C@@H](N[C@@H](CCc2ccccc2)C(=O)O)CCc2ccccc21 [CGS 14831. dilithium salt]
IV. O=C(O)CN1C(=O)[C@@H](N[C@@H](CCc2ccccc2)C(=O)O)CCc2ccccc21 [CGS 14831. dipotassium salt]
Incoming: Rank order required: Permeation rate through polyurethane, descending. Labels, requested order.
Outgoing: IV, III, I, II
(IV: 75.01 ug/cm 2/hr, III: 47.76 ug/cm 2/hr, I: 13.34 ug/cm 2/hr, II: 0.538 ug/cm 2/hr)

###

# ASSAY COMMENT: Solubility in octanol at 25 deg. C. (model of skin lipids)
# Format: physicochemical
# SETTINGS: octanol, organic solvent or mixture, average of triplicate
ASSAY METRIC: solubility (µg/mL)
Report as a plain number; the unit µg/mL is understood.

Incoming: Which solubility value belongs to N[C@@H](Cc1ccccc1)C(=O)O [Phenylalanine (Phe), Phenylalanine, reference compound] ?
Outgoing: 12.3

###

# ASSAY COMMENT: Solubility in octanol at 25 deg. C. (model of skin lipids)
# Assay type: physicochemical
# SETTINGS: average of triplicate
Counter-ions that a name gives are not always drawn.
ASSAY METRIC: Solubility in octanol (µg/mL)

1) NC(Cc1ccccc1)C(=O)O (stereo not drawn) [Phe. hydrochloride] : 40231.8

P. NCCCC[C@H](N[C@H]1CCc2ccccc2N(CC(=O)O)C1=O)C(=O)O [CGS 16617. dihydrochloride]
Q. NCCCC[C@H](N[C@H]1CCc2ccccc2N(CC(=O)O)C1=O)C(=O)O [CGS 16617. dihydrobromide]
R. NCCCC[C@H](N[C@H]1CCc2ccccc2N(CC(=O)O)C1=O)C(=O)O [CGS 16617. monomaleate]
Incoming: Ranking field: Solubility in octanol; order: falling. Please list the labels in the order you were asked to rank them.
Outgoing: Q, P, R
(Q: 506.7 µg/mL, P: 87.8 µg/mL, R: 13.96 µg/mL)

I. NCC(CC(=O)O)c1ccc(Cl)cc1 (stereo not drawn) [Bac. hydrobromide]
II. NCC(CC(=O)O)c1ccc(Cl)cc1 (stereo not drawn) [Baclofen (Bac), Baclofen, reference compound]
III. NCC(CC(=O)O)c1ccc(Cl)cc1 (stereo not drawn) [Bac. hydrochloride]
Incoming: Order the entries by their reported Solubility in octanol, beginning at the minimum. Respond with the label ranking, as requested.
Outgoing: II, III, I

A. NCCCC[C@H](N[C@H]1CCc2ccccc2N(CC(=O)O)C1=O)C(=O)O [CGS 16617, reference compound]
B. NCC(CC(=O)O)c1ccc(Cl)cc1 (stereo not drawn) [Bac. pentane sulfonate]
Incoming: Endpoint returns whichever of A and B has the numerically higher Solubility in octanol. State the label of the item chosen.
Outgoing: B
(B: 576.4 µg/mL, A: 23.36 µg/mL)

###

# ASSAY COMMENT: Permeation rate through human epidermis
# Format: in vitro ADME
# SETTINGS: average of triplicate
Counter-ions that a name gives are not always drawn.
ASSAY METRIC: Permeation rate through human epidermis (ug/cm 2/hr)

Below, each entry is followed by its recorded Permeation rate through human epidermis result.
1) NC(Cc1ccccc1)C(=O)O (stereo not shown) [Phe. hydrochloride] : 77.53
2) N[C@@H](Cc1ccccc1)C(=O)O [Phenylalanine (Phe), Phenylalanine, reference compound] : 1.02

I. NCC(CC(=O)O)c1ccc(Cl)cc1 (stereo not shown) [Baclofen (Bac), Baclofen, reference compound]
II. NCC(CC(=O)O)c1ccc(Cl)cc1 (stereo not shown) [Bac. hydrobromide]
Incoming: When I and II are compared, which has the higher number for Permeation rate through human epidermis? Could you answer with the label of the item you picked?
Outgoing: II

###

# ASSAY COMMENT: Permeation rate through human epidermis
# Type: in vitro ADME
# SETTINGS: relative to free zwitterion
Where a name gives a salt, the structure may show the parent alone.
ASSAY METRIC: R.E. (relative enhancement) of permeation rate through human epidermis

Worked set:
1) NC(Cc1ccccc1)C(=O)O (stereo not shown) [Phe. hydrochloride] : 76.01
2) N[C@@H](Cc1ccccc1)C(=O)O [Phenylalanine (Phe), Phenylalanine, reference compound] : 1.00

1. NCC(CC(=O)O)c1ccc(Cl)cc1 (stereo not shown) [Bac. hydrobromide]
2. NCC(CC(=O)O)c1ccc(Cl)cc1 (stereo not shown) [Baclofen (Bac), Baclofen, reference compound]
Incoming: When their R.E. (relative enhancement) of permeation rate through human epidermis values are compared, which is larger, 1 or 2 ? // caller expects the label of the chosen entry
Outgoing: 1

###

# ASSAY COMMENT: Solubility in water at 25 deg. C.
# Assay type: physicochemical
# SETTINGS: average of triplicate
Counter-ions that a name gives are not always drawn.
ASSAY METRIC: Solubility in water (mg/mL)

Here are 2 compounds together with their reported answers.
1. NCC(CC(=O)O)c1ccc(Cl)cc1 (stereo not shown) [Bac. hydrofluoride] : 1.3962
2. NCC(CC(=O)O)c1ccc(Cl)cc1 (stereo not shown) [Bac. lithium salt] : 21.7191

A. NCC(CC(=O)O)c1ccc(Cl)cc1 (stereo not shown) [Bac. fumarate]
B. NCCCC[C@H](N[C@H]1CCc2ccccc2N(CC(=O)O)C1=O)C(=O)O [CGS 16617, reference compound]
Incoming: Which of the two gives a bigger number for Solubility in water: A or B ? Reply briefly: the label of your chosen item.
Outgoing: B

a. NCC(CC(=O)O)c1ccc(Cl)cc1 (stereo not shown) [Bac. hydrobromide]
b. NCCCC[C@H](N[C@H]1CCc2ccccc2N(CC(=O)O)C1=O)C(=O)O [CGS 16617. monomaleate]
c. NCC(CC(=O)O)c1ccc(Cl)cc1 (stereo not shown) [Baclofen (Bac), Baclofen, reference compound]
Incoming: With regard to Solubility in water, arrange the entries in ascending order, please. Please reply with the labels ordered as requested. Many thanks.
Outgoing: c, a, b

###

# ASSAY COMMENT: Permeation rate through polyurethane
# Type: physicochemical
# SETTINGS: average of triplicate
Counter-ions that a name gives are not always drawn.
ASSAY METRIC: Permeation rate through polyurethane (ug/cm 2/hr)

1) NCC(CC(=O)O)c1ccc(Cl)cc1 (stereo not shown) [Bac. hydrobromide] : 738.9

P. NCC(CC(=O)O)c1ccc(Cl)cc1 (stereo not shown) [Bac. propane sulfonate]
Q. NCC(CC(=O)O)c1ccc(Cl)cc1 (stereo not shown) [Bac. sodium salt]
Incoming: Just tell me: smaller Permeation rate through polyurethane value, P or Q ? Respond using the label that marks the chosen record.
Outgoing: P

A. NCC(CC(=O)O)c1ccc(Cl)cc1 (stereo not shown) [Bac. pentane sulfonate]
B. NCC(CC(=O)O)c1ccc(Cl)cc1 (stereo not shown) [Bac. fumarate]
C. NCC(CC(=O)O)c1ccc(Cl)cc1 (stereo not shown) [Bac. lithium salt]
D. NCC(CC(=O)O)c1ccc(Cl)cc1 (stereo not shown) [Bac. hydrofluoride]
Incoming: Rank the 4 molecules: largest Permeation rate through polyurethane first, smallest last. To answer, arrange all of the labels according to the requested order.
Outgoing: A, C, B, D
(A: 220.2 ug/cm 2/hr, C: 128.3 ug/cm 2/hr, B: 11.4 ug/cm 2/hr, D: 3.45 ug/cm 2/hr)
